Hi there, I'd appreciate the recorded growth inhibition for every entry that follows.
- ASSAY_SUMMARY: NCI Yeast Anticancer Drug Screen. Data for the sgs1 mgt1 strain (AID 161);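 also: 0% = growth of cultures given vehicle only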
- MEASUREMENT_PARAMETERS: S. cerevisiae sgs1 mgt1 strain, at 50.0 µM, active compounds read high
The panel holds about 79,000 compounds, 15% with a hit somewhere; the sample as a whole holds those more often.
Answers are plain numbers, in %.

Example entries begin here.
[[record]]
compound = "O=C1C2C=CC1C1C(=O)OC(=O)C21 (stereo not drawn)"
property = "growth inhibition"
result_number = 89.2

[[record]]
compound = "N#CN1C2CCC1CC(=O)C2"
property = "growth inhibition"
result_number = 77.4

[[record]]
compound = "O=C(OCCN1CCCCCC1)C(c1ccsc1)C1CCCCC1 (stereo not drawn)"
property = "growth inhibition"
result_number = 84

[[record]]
compound = "CCN(CC)CC(O)c1ccc2ccc3ccccc3c2c1 (stereo not drawn)"
property = "growth inhibition"
result_number = 42.7


Provide growth inhibition values for the following items, in order.
1. Nc1nc(-c2cccnc2)cc(-c2cc(-c3cccnc3)nc(N)n2)n1
2. O=C(NC(Nc1ccc(F)c(Cl)c1)(C(F)(F)F)C(F)(F)F)C(C(F)(F)F)C(F)(F)F
3. N#CN=Nc1cc(Cl)c(N=NC#N)cc1Cl
4. OCC(Cn1cncn1)(c1ccc(F)cc1F)n1cncn1 (stereo not drawn)
5. c1ccc2c(c1)Oc1cccc3cccc-2c13
6. O=Cc1cccc2ccc3ccccc3c12

Solution:
1: 0.15; 2: 36; 3: 60.2; 4: 68.2; 5: 47.6; 6: 98.2

Provide growth inhibition values for the following items, in order.
1. COc1cc(C2C3=C(COC3=O)Oc3cc4c(cc32)OCO4)ccc1O (stereo not drawn)
2. O=C(Nc1ccccc1)C(=O)C(C(=O)c1ccccc1)C(c1ccccc1)c1ccccc1 (stereo not drawn)

Solution:
1. 22.4
2. 29.4

Provide growth inhibition values for the following items, in order.
1. Cn1c(=O)c(-c2ccccc2)c(N=[N+]=[N-])c2ccccc21
2. CN(Cc1cnc2nc(N)nc(N)c2n1)c1ccc(C(=O)N[C@@H](CCC(=O)O)C(=O)O)cc1

Solution:
87.4
82.5

Provide growth inhibition values for the following items, in order.
1. O=C(O)c1cccc(-c2c3ccc(=O)cc-3oc3cc(O)ccc23)c1
2. O=C(O)C1OC1(c1cccc(Cl)c1)c1ccccc1Cl (stereo not drawn)
3. COC(=O)c1cc(-c2ccc(C)cc2)[nH]c(=O)c1C#N
4. CC(C)(Br)C(=O)/C=C/c1ccc(Cl)c(Cl)c1
5. Cc1ccc(NN(NC(=O)OC(C)C)C(=O)OC(C)C)cc1
6. CN(C)CCOc1ccc2c(c1)C/C(=C/c1ncc([N+](=O)[O-])n1C)C2=O

Solution:
1: 54.2; 2: 93.1; 3: 84.3; 4: 85.8; 5: 29.6; 6: 83.1
